Assay method text: reduction of polyQ htt aggregates in cells – imaging, exon1htt(103Q)mCFP cells, high-content imaging, primary screen (AID 483);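 also: compound exposure lasted 3 days before fixation; percent of the per-plate median nuclei count of sample wells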
Run conditions: exon1htt(103Q)mCFP cell line, aggregate imaging, at 2 µM; measured here: cell count, toxicity
Endpoint name: nuclei count (%)
Reply numerically in %, unit not repeated.

For orientation, consider the following solved cases.
Compound	Reading unit	Test value
Cc1ccc2cc(C(c3nnnn3C3CCCC3)N3CCN(c4ccc(F)cc4)CC3)c(=O)[nH]c2c1 (stereo unspecified)	%	99.8
COc1ccc(Br)cc1C(=O)Nc1nnn(C)n1	%	102
Cc1nc(NC2=NCN(CCc3ccccc3)CN2)nc2c(C)cccc12	%	79.5
Cc1cccc(-n2c(SCc3cc(=O)n4ccsc4n3)nc3ccccc32)c1	%	97.1
O=C(c1cccc(Cl)c1)N1CCN(Cc2ccncc2)CC1	%	106

Record request: nuclei count value, item CC(c1ccco1)N(C(=O)COc1ccc(Cl)cc1Cl)c1ccccn1 (stereo unspecified)
96

Record request: nuclei count value, item CCN(CC)S(=O)(=O)c1ccc(NC(=O)c2cccc3c2C(=O)N(CCOC)C3)cc1
93.3

Record request: nuclei count value, item O=C(Cn1cccc1C(=O)c1ccccc1)NCCN1CCOCC1
114

Record request: nuclei count value, item Cc1cc(C)cc(NS(=O)(=O)c2ccc3[nH]c(=O)[nH]c3c2)c1
112

Record request: nuclei count value, item COc1ccc(Cl)cc1NC(=O)CSc1nncn1-c1cccnc1
58.8

Record request: nuclei count value, item Cc1ccc(C)c2[nH]c(=O)c(CCNC(=O)c3ccc(S(=O)(=O)N(C)C)cc3)cc12
125

====

Assay method text: blockers of RIG-like receptor reporter activation – cell-based, Sendai virus stimulus, luciferase, 10K MLSCN set, TLR/RLR signaling modifier project, primary screen (AID 602276);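 also: firefly luciferase from ISG56 promoter only with Renilla not read in this screen; 0% = Sendai virus plus DMSO and 100% = medium plus DMSO without virus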
Run conditions: HEK293 RL24 IRF3 luciferase reporter, at 10 µM, stronger effect = higher value
Endpoint name: inhibition (%)
Reply numerically in %, unit not repeated.

Compound	Reading unit	Test value
Cc1cc(C)nc(NS(=O)(=O)c2ccc(NC(=O)Cn3c(=O)oc4ccccc43)cc2)n1	%	9.3
Oc1ccc(Nc2nc(-c3ccc(O)cc3)cs2)cc1	%	-43
Cc1nnc(NC(=O)c2ccccc2F)s1	%	-6.19
COC(=O)c1ccc2ncccc2c1	%	-15.2
Nc1ccc(-c2ccc(N)cc2C(F)(F)F)c(C(F)(F)F)c1	%	16.9
CN(C)C(CNc1nnnn1-c1ccccc1)c1ccco1 (stereo not drawn)	%	8.59

Record request: inhibition value, item CC(=O)Nc1ccc(NC(=O)c2ccccc2N(C)S(C)(=O)=O)cc1
11.7

Record request: inhibition value, item O=S(=O)(NCCCCCNS(=O)(=O)c1ccccc1)c1ccccc1
20.2

Record request: inhibition value, item CCOC(=O)c1sc(NC(=O)CSc2ncn(-c3ccccc3)n2)nc1C
13.7

Record request: inhibition value, item O=C(NC1CCCC1)C(NS(=O)(=O)c1cccc2nsnc12)c1ccccc1 (stereo not drawn)
17.9

Record request: inhibition value, item COC(=O)Cn1c(CCS(=O)(=O)c2ccc(C)cc2)nc2ccccc21
17.1

Record request: inhibition value, item CCCNC(=O)C1CCN(S(=O)(=O)c2ccc3nc4c(c(C(=O)O)c3c2)CCCCC4)CC1
8.11

Record request: inhibition value, item O=C(CN1CCC(n2nnc3ccccc32)CC1)Nc1ccc2c(c1)CCC2
16

Record request: inhibition value, item COCCOC(=O)C1=C(N)OC2=C(C(=O)CC(C)(C)C2)C1c1cccnc1 (stereo not drawn)
-8.98

Record request: inhibition value, item CCOc1nc(-c2ccccc2O)nc2ccccc12
6.19

Record request: inhibition value, item c1ccc(-n2nnnc2OCCOc2nnnn2-c2ccccc2)cc1
14.3

Record request: inhibition value, item COCCn1c(=O)[nH]c2cc(C(=O)N3CCN(Cc4ccc5c(c4)OCO5)CC3)ccc2c1=O
2.81

Record request: inhibition value, item COCCCNC(=O)c1ccc(CS(=O)(=O)c2ccc(OC)cc2)o1
7.18

Record request: inhibition value, item O=C(Nc1cc(C(F)(F)F)ccc1Cl)c1cc(C2CC2)on1
21.5

Record request: inhibition value, item Cc1cc(NC(=O)COc2cccc3cccnc23)no1
-7.48

Record request: inhibition value, item COc1ccc(N(C(=O)c2ccco2)S(=O)(=O)c2cc(OC)ccc2OC)cc1
8.61

Record request: inhibition value, item CC(=O)Nc1ccc(S(=O)(=O)N(C2=NCC(C)S2)c2ccccc2)cc1 (stereo not drawn)
11.6

Record request: inhibition value, item COC(=O)CN(Cc1ccco1)S(=O)(=O)c1ccccc1
7.73

====

Each entry below carries its reported inhibition.
Assay method text: blockers of RIG-like receptor reporter activation – cell-based, Sendai virus stimulus, luciferase, 10K MLSCN set, TLR/RLR signaling modifier project, primary screen (AID 602276);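 also: firefly luciferase from ISG56 promoter only with Renilla not read in this screen; 0% = Sendai virus plus DMSO and 100% = medium plus DMSO without virus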
Run conditions: HEK293 RL24 IRF3 luciferase reporter, at 10 µM, stronger effect = higher value
The source made the active and inactive calls.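 Rule for the calls: active = inhibition at or above 50% at 10 µM; inactive = inhibition below 50%.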

For orientation, consider the following solved cases.
Molecule	Test value
O=C(NCCC1=CCCCC1)C1CCN(S(=O)(=O)c2cccc3nsnc23)CC1	13.1% (inactive)
O=C(O)C1CCCN1c1ncnc2c1oc1ccccc12 (stereo not drawn)	5.71% (inactive)
CCCNC(=O)C1=C(C)C(=O)OC12CCC(C)CC2 (stereo not drawn)	3.82% (inactive)
CN(C)c1nc(Nc2ccc(Cl)cc2)nc(OCC#N)n1	24.2% (inactive)
Nc1nonc1C(=O)NCCNCc1cc(Br)ccc1OCc1ccccc1F	-2.45% (inactive)
CC(C(=O)NC(=O)NC1CCCCC1)N1CCN(c2ccccn2)CC1 (stereo not drawn)	5.51% (inactive)
O=C(c1ncc[nH]1)c1ccccc1C(=O)N1CCOCC1	-6.47% (inactive)
Cc1cc(C)c(NC2=NCC(=O)N2C2CCCCC2)c(C)c1	-0.88% (inactive)

Record request: inhibition value, item COc1ccc(CCNc2oc(Cc3cccc4ccccc34)nc2C#N)cc1OC
17.3% (inactive)

Record request: inhibition value, item CC(C)c1ccc(C(O)c2cnc(C(C)C)n2C)cc1 (stereo not drawn)
-10.5% (inactive)

Record request: inhibition value, item CC(=O)N1CCc2cc(S(=O)(=O)NCCC3=CCCCC3)ccc21
12.2% (inactive)

====

Assay method text: reduction of polyQ htt aggregates in cells – imaging, exon1htt(103Q)mCFP cells, high-content imaging, primary screen (AID 483);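 also: compound exposure lasted 3 days before fixation; percent of the per-plate median nuclei count of sample wells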
Run conditions: exon1htt(103Q)mCFP cell line, aggregate imaging, at 2 µM; measured here: cell count, toxicity
Each entry below carries its reported nuclei count.
Reply numerically in %, unit not repeated.

For orientation, consider the following solved cases.
Molecule	Endpoint name	Test value
CCN(CC)S(=O)(=O)c1ccc(Cl)c(C(=O)OC)c1	nuclei count	87.5
COC(=O)C1=C(N)OC2=C(C(=O)CCC2)C1c1cccs1 (configuration not stated)	nuclei count	52
CNC(=O)CSc1nnc(-c2cc(C)cc(C)c2)o1	nuclei count	123

Record request: nuclei count value, item Cc1ccc(C)c2[nH]c(=O)c(CCNC(=O)c3ccc(Br)o3)cc12
87

====

Each entry below carries its reported NADPH fluorescence slope.
Measured target: Voltage-gated potassium channel subunit beta-2 (Rattus norvegicus)
Assay method text: enhancers of rat Kvbeta2 NADPH turnover – biochemical, NADPH fluorescence, primary screen (AID 623);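 also: fluorescence intensity change per second fitted from 20 to 320 s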
Run conditions: Recombinant KvBeta, NADPH fluorescence decrease slope, 10 min; at 10 µM; stronger effect = lower value
No unit in the answer, only the number.

Molecule	Test value
COc1ccc(NC(=O)CSc2nc3c(c(=O)n2-c2ccc(F)cc2)SCC3)c(OC)c1	-1.7e-05

Record request: NADPH fluorescence slope value, item c1ccc(Cn2nnc3c(N4CCC5(CC4)OCCO5)ncnc32)cc1
-5.2e-05

Record request: NADPH fluorescence slope value, item CC(=O)NC1(C(F)(F)F)NC(=O)N(CC(C)C)C1=O (stereo unspecified)
2e-05

Record request: NADPH fluorescence slope value, item CC(=O)c1cc2c(=O)c3cc(C)ccc3oc2nc1C
5.2e-06

Record request: NADPH fluorescence slope value, item CC(C)C(=O)Nc1ccc(-c2nc3cccnc3o2)cc1
4.8e-06

Record request: NADPH fluorescence slope value, item CSc1ccccc1NC(=O)CN(c1ccccc1)S(=O)(=O)N(C)C
3.3e-06

====

Measured target: Voltage-gated potassium channel subunit beta-2 (Rattus norvegicus)
Assay method text: enhancers of rat Kvbeta2 NADPH turnover – biochemical, NADPH fluorescence, primary screen (AID 623);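 also: fluorescence intensity change per second fitted from 20 to 320 s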
Run conditions: Recombinant KvBeta, NADPH fluorescence decrease slope, 10 min; at 10 µM; stronger effect = lower value
Calls of active or inactive are those of the source.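 Rule for the calls: active = NADPH fluorescence slope more negative than the mean of all samples by about 3 SD, 99.7% confidence; inactive = the rest.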
Each entry below carries its reported NADPH fluorescence slope.

Compound	Test value
O=C(CCCCC(=O)NCc1cccs1)NCc1cccs1	3.2e-05 (inactive)
O=C(N1CCN(Cc2ccccc2)CC1)C12CC3CC(CC(C3)C1)C2	-4.6e-05 (inactive)
O=C(Nc1ccccc1)N(Cc1cccnc1)Cc1ccco1	-3.6e-05 (inactive)
COc1cc(S(=O)(=O)N2CCOCC2)ccc1NC(=O)COC(=O)c1ccccn1	-2.5e-05 (inactive)
O=C1CC(N2CCOCC2)C(=O)N1c1ccc2c(c1)OCO2 (stereo not drawn)	-3.1e-05 (inactive)

Record request: NADPH fluorescence slope value, item COc1cccc(C(=O)Nc2cc(NC(=O)c3ccco3)ccc2OC)c1
-3.4e-05 (inactive)

Record request: NADPH fluorescence slope value, item CCOc1ccc(-c2noc(-c3ccncc3)n2)cc1OCC
4e-05 (inactive)

Record request: NADPH fluorescence slope value, item O=C(Nc1ccc(F)cc1)NC1CCN(Cc2nnnn2Cc2ccco2)CC1
-4.4e-05 (inactive)

Record request: NADPH fluorescence slope value, item Cc1ccc(-c2cc(C(F)F)nc(N3CCC(C)CC3)n2)cc1
-1.2e-05 (inactive)

Record request: NADPH fluorescence slope value, item O=C(CCn1c(=O)oc2ccccc21)NCCN1CCOCC1
-5.4e-05 (inactive)

Record request: NADPH fluorescence slope value, item CC(C)COC(=O)C(C#N)c1nc2ccccc2nc1N1CCN(Cc2ccccc2)CC1 (stereo not drawn)
8.1e-06 (inactive)

Record request: NADPH fluorescence slope value, item COc1cccc(OCCSc2nnc3sc4ccccc4n23)c1
-0.000108 (inactive)

Record request: NADPH fluorescence slope value, item Cc1csc2nc(CSc3nc4ccccc4o3)c(Br)n12
0.000171 (inactive)

Record request: NADPH fluorescence slope value, item CCCOC(=O)C1[C@H]2C(=O)N(CCCOC)C[C@]23C=C[C@H]1O3 (stereo partly drawn)
3.2e-05 (inactive)

Record request: NADPH fluorescence slope value, item Cc1c(C(=O)O)sc2nc3n(c(=O)c12)CCC(C)CC3 (stereo not drawn)
6.7e-05 (inactive)

Record request: NADPH fluorescence slope value, item Cc1ccc(Cn2c(=O)c3ccccc3n3c(CCC(=O)O)nnc23)cc1
1.7e-05 (inactive)
